Attribution: PubChem BioAssay AID1963842

# System: 677734-321-R-J1-PDC complex spheroid viability;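 also: spheroids exposed to compounds for one week; 100% = vehicle DMSO treated spheroids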
# Experimental Details: Anticancer human tumor 677734-321-R-J1-PDC patient-derived soft tissue sarcoma cell line growth inhibition [POLQ]
# Test Settings: second compound 0.1 µM; first compound 10 µM; active compounds read low
Metric: viability, T/C

These recorded examples may help you get a feel for the data.
Compound	Metric	Reported Value
COc1cccc2c1C(=O)c1c(O)c3c(c(O)c1C2=O)CC(O)(C(=O)CO)CC3OC1CC(N)C(O)C(C)O1 (stereo unspecified) + COC1C(OC(N)=O)C(O)C(Oc2ccc3c(O)c(NC(=O)c4ccc(O)c(CC=C(C)C)c4)c(=O)oc3c2C)OC1(C)C	viability, T/C	3.77%
CCCS(=O)(=O)Nc1ccc(F)c(C(=O)c2c[nH]c3ncc(-c4ccc(Cl)cc4)cc23)c1F + Nc1ccc(C#CCN(C(=O)Cc2ncc(C(F)(F)F)cc2C(F)(F)F)c2ccc(F)cc2)nn1	viability, T/C	6.32%
C#Cc1c(F)ccc2cc(O)cc(-c3ncc4c(N5CC6CCC(C5)N6)nc(OCC56CCCN5CC(F)C6)nc4c3F)c12 (stereo unspecified) + Nc1ccc(C#CCN(C(=O)Cc2ncc(C(F)(F)F)cc2C(F)(F)F)c2ccc(F)cc2)nn1	viability, T/C	79.6%
O=c1[nH]cc(F)c(=O)[nH]1 + Cc1cccc(N(C)C(=O)C2C(O)CCN2c2nc(C)cc(C(F)(F)F)c2C#N)c1	viability, T/C	44.8%
O=c1[nH]cc(F)c(=O)[nH]1 + COC1C(OC(N)=O)C(O)C(Oc2ccc3c(O)c(NC(=O)c4ccc(O)c(CC=C(C)C)c4)c(=O)oc3c2C)OC1(C)C	viability, T/C	43.2%

Ask: Tell me the measured viability, T/C of O=c1[nH]cc(F)c(=O)[nH]1 + Nc1ccc(C#CCN(C(=O)Cc2ncc(C(F)(F)F)cc2C(F)(F)F)c2ccc(F)cc2)nn1 , please.
Result: 54.4%

Ask: Entry C#Cc1c(F)ccc2cc(O)cc(-c3ncc4c(N5CC6CCC(C5)N6)nc(OCC56CCCN5CC(F)C6)nc4c3F)c12 (stereo unspecified) + COC1C(OC(N)=O)C(O)C(Oc2ccc3c(O)c(NC(=O)c4ccc(O)c(CC=C(C)C)c4)c(=O)oc3c2C)OC1(C)C : reported viability, T/C = ?
Result: 98.7%

Ask: Data request, read-out viability, T/C, for COc1cc(C2c3cc4c(cc3C(OC3OC5COC(C)OC5C(O)C3O)C3COC(=O)C23)OCO4)cc(OC)c1O (stereo unspecified) + Cc1cccc(N(C)C(=O)C2C(O)CCN2c2nc(C)cc(C(F)(F)F)c2C#N)c1
Result: 10.7%

Ask: Entry O=C(Nc1ccc(O)c(NS(=O)(=O)c2ccc(F)cc2)c1)c1ccc(-c2ccccc2)cc1 + Cc1cccc(N(C)C(=O)C2C(O)CCN2c2nc(C)cc(C(F)(F)F)c2C#N)c1 has what viability, T/C?
Result: 20.9%

Ask: So what's the measured viability, T/C for this one? CC1COCCN1c1cc(-c2ccnn2C)c2ccnc(-c3ccn[nH]3)c2n1 (stereo unspecified) + Nc1ccc(C#CCN(C(=O)Cc2ncc(C(F)(F)F)cc2C(F)(F)F)c2ccc(F)cc2)nn1
Result: 8.21%

Ask: If you can, please state the reported viability, T/C value of CNCc1ccc(-c2[nH]c3cc(F)cc4c3c2CCNC4=O)cc1 + COC1C(OC(N)=O)C(O)C(Oc2ccc3c(O)c(NC(=O)c4ccc(O)c(CC=C(C)C)c4)c(=O)oc3c2C)OC1(C)C .
Result: 96.5%
